# TARGET OR SYSTEM: T1, SRA-Spacer (human, UniProt Q96T88 414-674)
# T1 sequence: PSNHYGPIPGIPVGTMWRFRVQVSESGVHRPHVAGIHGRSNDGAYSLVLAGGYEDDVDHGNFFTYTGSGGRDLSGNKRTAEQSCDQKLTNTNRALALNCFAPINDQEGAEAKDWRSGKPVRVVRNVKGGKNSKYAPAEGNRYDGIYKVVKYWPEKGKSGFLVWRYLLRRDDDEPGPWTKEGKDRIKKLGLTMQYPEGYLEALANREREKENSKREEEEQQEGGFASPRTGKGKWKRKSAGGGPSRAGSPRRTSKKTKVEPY
# ASSAY DETAILS: FP; 150 mM NaCl; ITC: 10 mM HEPES pH 8.0, 100 mM NaCl, 18 C; EMSA: 20 mM HEPES pH 7.5, 100 mM NaCl, 8% glycerol, 1 mM DTT, on ice; pull-down: 20 mM HEPES-NaOH pH 8.0, 100 mM NaC
OBSERVATION TYPE: pKd
Numbers only, as −log10 of the molar value.

Item FAM-12bp-HM-DNA (dsDNA, 5-methyl-dC at position 6 of strand 2 (GTCAGXGCATGG)) DNA 1: CCATGCGCTGAC DNA 2: GTCAGCGCATGG : provide pKd
6.24

Values compiled from paper PMC4822050.
